// reported MIC for each item listed
Tested on: Mycobacterium tuberculosis
method description: Antibacterial activity against Mycobacterium tuberculosis
Assay type: functional
readout kind: MIC (µg/mL)

INSERT INTO results (smiles, measurement_target, unit_label, measured_number) VALUES
  ('CO[C@@H]1[C@@H](OC)[C@H](C)O[C@@H](OC(=O)C[C@@H](C)CC(=O)O[C@@H](CCCCCCCCC(C)C)CC(=O)O[C@H]2CN(C)[C@@H]([C@H](O[C@@H]3O[C@H](CN)[C@@H](O)[C@H]3O)[C@H]3O[C@@H](n4ccc(=O)[nH]c4=O)[C@H](O)[C@@H]3O)C(=O)N(C)[C@@H]2C(=O)O)[C@@H]1OC', 'Mycobacterium tuberculosis', 'µg/mL', 1.56),
  ('CCCCCCCCCCC[C@@H](CC(=O)O[C@H]1CN(C)[C@@H]([C@H](O[C@@H]2O[C@H](CN)[C@@H](O)[C@H]2O)[C@H]2O[C@@H](n3ccc(=O)[nH]c3=O)[C@H](O)[C@@H]2O)C(=O)N(C)[C@@H]1C(=O)O)OC(=O)C[C@H](C)CC(=O)O[C@@H]1O[C@@H](C)[C@H](OC)[C@@H](OC)[C@H]1OC', 'Mycobacterium tuberculosis', 'µg/mL', 0.78),
  ('CCCCCCCCCCCCC[C@@H](CC(=O)O[C@H]1CN(C)[C@@H]([C@H](O[C@@H]2O[C@H](CN)[C@@H](O)[C@H]2O)[C@H]2O[C@@H](n3ccc(=O)[nH]c3=O)[C@H](O)[C@@H]2O)C(=O)N(C)[C@@H]1C(=O)O)OC(=O)C[C@H](C)CC(=O)O[C@@H]1O[C@@H](C)[C@H](OC)[C@@H](OC)[C@H]1OC', 'Mycobacterium tuberculosis', 'µg/mL', 1.56),
  ('CCCCCCCCCCCC[C@@H](CC(=O)O[C@H]1CN(C)[C@@H]([C@H](O[C@@H]2O[C@H](CN)[C@@H](O)[C@H]2O)[C@H]2O[C@@H](n3ccc(=O)[nH]c3=O)[C@H](O)[C@@H]2O)C(=O)N(C)[C@@H]1C(=O)O)OC(=O)C[C@H](C)CC(=O)O[C@@H]1O[C@@H](C)[C@H](OC)[C@@H](OC)[C@H]1OC', 'Mycobacterium tuberculosis', 'µg/mL', 0.78);

* * *

Listing of entries alongside the reported log10 of MIC.
Tested on: Enterococcus faecium
method description: Antibacterial activity against Enterococcus faecium ATCC 19434
Type: functional
readout kind: log10 of MIC (log10 of the value in µg/mL)

INSERT INTO measurements (smiles, measured_number) VALUES
  ('CCCCCCCCCCCCCCCC(=O)N[C@H]1CCN[C@H]([C@H](O[C@@H]2O[C@H](CN)[C@@H](O)[C@H]2O)[C@H]2O[C@@H](n3ccc(=O)[nH]c3=O)[C@H](O)[C@@H]2O)C1', 0.90),
  ('NC[C@H]1O[C@@H](O[C@@H](Cn2cc(CCCCCCCCCCOc3ccc(C(=O)c4ccccc4)cc3)nn2)[C@H]2O[C@@H](n3ccc(=O)[nH]c3=O)[C@H](O)[C@@H]2O)[C@H](O)[C@@H]1O', 2.11),
  ('CCCCCCCCCCCCCC(=O)N[C@@H]1CCN[C@@H]([C@H](O[C@@H]2O[C@H](CN)[C@@H](O)[C@H]2O)[C@H]2O[C@@H](n3ccc(=O)[nH]c3=O)[C@H](O)[C@@H]2O)C1', 1.20),
  ('CCCCCCCCCCCCCCCC(=O)N[C@H]1CCN[C@H]([C@@H](O[C@@H]2O[C@H](CN)[C@@H](O)[C@H]2O)[C@H]2O[C@@H](n3ccc(=O)[nH]c3=O)[C@H](O)[C@@H]2O)C1', 1.51),
  ('CCCCCCCCCCCCCCCC(=O)N[C@@H]1CCN[C@@H]([C@@H](O[C@@H]2O[C@H](CN)[C@@H](O)[C@H]2O)[C@H]2O[C@@H](n3ccc(=O)[nH]c3=O)[C@H](O)[C@@H]2O)C1', 1.51),
  ('NC[C@H]1O[C@@H](O[C@@H](Cn2cc(CCCCCCCCCCc3ccccc3)nn2)[C@H]2O[C@@H](n3ccc(=O)[nH]c3=O)[C@H](O)[C@@H]2O)[C@H](O)[C@@H]1O', 1.51),
  ('NC[C@H]1O[C@@H](O[C@@H](Cc2cn(CCCCCCCCCCc3ccccc3)nn2)[C@H]2O[C@@H](n3ccc(=O)[nH]c3=O)[C@H](O)[C@@H]2O)[C@H](O)[C@@H]1O', 1.81);
